List of pIC50 tested on SYK (Homo sapiens).
pIC50: −log10 of the molar value.

Known pIC50 results, listed for orientation:
- compound: "CC1(C)C(=O)Nc2cc(Nc3nc4c(N5CC[C@]6(CC(=O)NC6=O)C5)nccn4n3)ccc21"
  target_system: "SYK (Homo sapiens)"
  result: "> 7.00"
- compound: "COc1ccccc1Nc1nc2c(-c3ccccc3-c3ccccc3)nccn2n1"
  target_system: "SYK (Homo sapiens)"
  result: "4.30 to 5.52"
- compound: "CC1(C)C(=O)Nc2cc(Nc3nc4c(-c5cnn(C(C)(C)C)c5)nccn4n3)ccc21"
  target_system: "SYK (Homo sapiens)"
  result: "> 7.00"

Now examine the next entry.
Asked: Send back SYK (Homo sapiens) pIC50 of `Cn1cc(-c2nccn3nc(Nc4cccc(S(N)(=O)=O)c4)nc23)cn1` only.
Given back: 4.30 to 5.52

---

IC50 for assorted molecules
target_system: SYK (Homo sapiens)

Known IC50 results, listed for orientation:
- molecule: "Cn1cc(-c2nccn3nc(Nc4ccc5c(c4)NC(=O)C54CCC4)nc23)cn1"
  result: "< 100 nM"
- molecule: "CC1(C)C(=O)Nc2cc(Nc3nc4c(N5CCc6ccc(C(N)=O)cc65)nccn4n3)ccc21"
  result: "< 100 nM"
- molecule: "COc1ccc(Nc2nc3c(-c4cnn(C)c4)nccn3n2)cc1"
  result: "300 to 3000 nM"
- molecule: "CC1(C)C(=O)Nc2cc(Nc3nc4c(N5CCCCCC5)nccn4n3)ccc21"
  result: "< 100 nM"

Asked: Give IC50 for Cn1cc(-c2nccn3nc(Nc4ccc5c(c4)NC(=O)C5(C)O)nc23)cn1 (centres unmarked)
Given back: 100 to 300 nM

---

List of IC50 tested on GCN2 (Homo sapiens, UniProt Q9P2K8).
Sequence (Q9P2K8 whole entry): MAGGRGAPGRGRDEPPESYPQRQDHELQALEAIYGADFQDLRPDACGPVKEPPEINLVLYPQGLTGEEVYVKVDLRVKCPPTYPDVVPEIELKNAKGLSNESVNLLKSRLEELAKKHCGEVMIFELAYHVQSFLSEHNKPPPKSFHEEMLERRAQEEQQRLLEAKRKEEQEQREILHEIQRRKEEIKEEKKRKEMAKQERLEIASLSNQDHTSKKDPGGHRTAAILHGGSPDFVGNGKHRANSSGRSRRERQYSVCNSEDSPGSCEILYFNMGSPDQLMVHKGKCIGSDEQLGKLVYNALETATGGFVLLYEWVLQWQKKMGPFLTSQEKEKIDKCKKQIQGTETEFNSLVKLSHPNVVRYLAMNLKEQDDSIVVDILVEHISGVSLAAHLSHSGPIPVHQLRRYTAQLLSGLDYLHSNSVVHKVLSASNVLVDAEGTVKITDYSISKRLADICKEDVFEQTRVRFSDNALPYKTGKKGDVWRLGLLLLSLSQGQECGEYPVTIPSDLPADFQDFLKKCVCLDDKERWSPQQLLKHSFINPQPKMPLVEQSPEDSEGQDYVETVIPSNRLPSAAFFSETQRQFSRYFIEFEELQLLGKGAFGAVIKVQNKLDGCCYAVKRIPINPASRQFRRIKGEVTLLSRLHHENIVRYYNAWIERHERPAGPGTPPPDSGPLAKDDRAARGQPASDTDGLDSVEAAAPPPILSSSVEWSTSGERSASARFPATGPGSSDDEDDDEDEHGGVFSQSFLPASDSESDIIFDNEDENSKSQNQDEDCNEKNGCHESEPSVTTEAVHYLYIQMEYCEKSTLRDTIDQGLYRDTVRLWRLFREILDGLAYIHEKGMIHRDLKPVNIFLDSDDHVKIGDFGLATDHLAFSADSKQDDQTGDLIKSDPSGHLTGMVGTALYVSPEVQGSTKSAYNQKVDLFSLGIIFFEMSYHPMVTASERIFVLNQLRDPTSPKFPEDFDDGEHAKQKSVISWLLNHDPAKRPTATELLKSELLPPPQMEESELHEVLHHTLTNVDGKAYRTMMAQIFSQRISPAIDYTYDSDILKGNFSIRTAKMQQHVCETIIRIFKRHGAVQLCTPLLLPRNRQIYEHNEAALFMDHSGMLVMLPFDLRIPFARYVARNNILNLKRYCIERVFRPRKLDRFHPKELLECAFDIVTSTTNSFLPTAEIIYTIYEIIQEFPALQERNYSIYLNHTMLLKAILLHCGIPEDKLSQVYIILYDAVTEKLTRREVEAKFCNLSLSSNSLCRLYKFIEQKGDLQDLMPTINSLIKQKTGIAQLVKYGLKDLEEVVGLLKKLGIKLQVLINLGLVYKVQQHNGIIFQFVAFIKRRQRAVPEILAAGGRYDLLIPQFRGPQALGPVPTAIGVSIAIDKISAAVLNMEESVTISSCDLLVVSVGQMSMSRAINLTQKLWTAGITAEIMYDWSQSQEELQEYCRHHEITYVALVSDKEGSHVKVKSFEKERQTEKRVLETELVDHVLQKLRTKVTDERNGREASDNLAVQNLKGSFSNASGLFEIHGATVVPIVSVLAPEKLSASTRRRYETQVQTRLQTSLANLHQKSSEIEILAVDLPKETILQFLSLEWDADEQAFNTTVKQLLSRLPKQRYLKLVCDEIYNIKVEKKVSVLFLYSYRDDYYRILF
Structures can show the parent of a compound that is named as a salt.

Known IC50 results, listed for orientation:
- compound: "CC1(C)C(=O)Nc2cc(Nc3nc4c(N5CCC[C@H](N)C5)nccn4n3)ccc21 [C99]"
  IC50: "3 to 50 µM"
- compound: "CC1(C)C(=O)Nc2cc(Nc3nc4c(N5CCC(N6CCNC6=O)CC5)nccn4n3)ccc21 [C104]"
  IC50: "3 to 50 µM"
- compound: "Cn1cc(-c2nccn3nc(Nc4ccc5c(c4)NC(=O)C(C)(C)O5)nc23)cn1 [C80]"
  IC50: "3 to 50 µM"
- compound: "CC1(C)C(=O)Nc2cc(Nc3nc4c(N5CC[C@H](N)C5)nccn4n3)ccc21 [C86]"
  IC50: "3 to 50 µM"
- compound: "Cn1cc(-c2nccn3nc(Nc4ccc(S(C)(=O)=O)cc4)nc23)cn1 [C23]"
  IC50: "3 to 50 µM"

Asked: Give IC50 for COc1cc(Nc2nc3c(N4CCN(C(C)=O)CC4)nccn3n2)cc(OC)c1 [C51]
Given back: 3 to 50 µM

Asked: Give IC50 for Cn1cc(-c2nccn3nc(Nc4ccc(C#N)c(O)c4)nc23)cn1 [C36]
Given back: 0.3 to 3 µM

Asked: Give IC50 for CC1(C)C(=O)Nc2cc(Nc3nc4c(N5CC[C@H](O)C5)nccn4n3)ccc21 [C83]
Given back: 3 to 50 µM

Asked: Give IC50 for COc1cccc(Nc2nc3c(-c4cnn(C)c4)nccn3n2)c1 [C8]
Given back: 3 to 50 µM

Asked: Give IC50 for COc1ccc(Nc2nc3c(-c4cnn(C)c4)nccn3n2)cc1OC [C6]
Given back: 0.3 to 3 µM

Asked: Give IC50 for CC1(C)C(=O)Nc2cc(Nc3nc4c(N5CC(O)C5)nccn4n3)ccc21 [C74]
Given back: 3 to 50 µM

Asked: Give IC50 for CC1(C)C(=O)Nc2cc(Nc3nc4c(N5CCC[C@@H](N)C5)nccn4n3)ccc21 [C94]
Given back: 3 to 50 µM

Asked: Give IC50 for Cn1cc(-c2nccn3nc(Nc4cnn(C5CCNCC5)c4)nc23)cn1 [C28, hydrochloride]
Given back: 0.3 to 3 µM

Asked: Give IC50 for COc1cc(Nc2nc3c(N4CCC(O)(CCO)CC4)nccn3n2)cc(OC)c1 [C49]
Given back: 3 to 50 µM

All figures here come from patent US9120804B2.
